assayed system: T1, human LAG-3-6*His tag recombinant fusion protein (human, UniProt P18627 23-450, biotin-labelled in panning and in Example 9)
T1 construct: Bought protein; also called hLAG-3-6*his tag recombinant protein; human LAG-3-his tag recombinant fusion protein
T1 sequence: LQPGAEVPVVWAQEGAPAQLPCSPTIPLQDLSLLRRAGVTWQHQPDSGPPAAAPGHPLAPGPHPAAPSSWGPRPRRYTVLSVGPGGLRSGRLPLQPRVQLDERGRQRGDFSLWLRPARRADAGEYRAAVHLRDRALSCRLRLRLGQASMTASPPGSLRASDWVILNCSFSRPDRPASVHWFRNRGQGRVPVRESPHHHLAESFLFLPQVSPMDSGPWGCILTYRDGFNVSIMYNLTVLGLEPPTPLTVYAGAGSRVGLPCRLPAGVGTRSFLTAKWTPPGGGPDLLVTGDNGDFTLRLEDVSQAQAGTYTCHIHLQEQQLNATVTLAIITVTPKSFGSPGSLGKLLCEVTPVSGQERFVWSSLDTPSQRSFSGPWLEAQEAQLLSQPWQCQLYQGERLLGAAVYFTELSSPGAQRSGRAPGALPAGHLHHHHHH
protocol summary: ELISA as in Example 4 (antibody coated, human LAG-3-6*His titrated)
Would you kindly list EC50 for each of these binders?
API: value field is a number in µg/mL; no unit string.

What measured EC50 goes with MV705-3-VH-DE + ED-IgG4 (antibody, V domains shown, human IgG4 S228P constant region, MV705-3 lambda light chain; also called 13563; 13563 (DE + ED)) VH: EVQLLESGAEVKKPGASVKVSCKASGYTFTSYGISWVRQAPGQGLEWMGWISAYNGNTNYAQKLQGRVTMTTDTSTSTAYMELRSLRSDETAVYYCARDGWWELLRPEDAFDIWGQGTTVTVSS VL: QLVLTQSPSVSVSPGQTASITCSGDKLGDKYAYWYQQKPGQAPVLVIYYDSDRPSGIPERFSGSNSGNTATLTISRVEAGDEADYYCQVWDSSSDQVVFGGGTQLTVLG ?
0.21

What measured EC50 goes with MV705-3-VH-DE + DE-IgG4 (antibody, V domains shown, human IgG4 S228P constant region, MV705-3 lambda light chain; also called 13565; 13565 (DE + DE)) VH: EVQLLESGAEVKKPGASVKVSCKASGYTFTSYGISWVRQAPGQGLEWMGWISAYNGNTNYAQKLQGRVTMTTDTSTSTAYMELRSLRSDETAVYYCARDGWWELLRPDEAFDIWGQGTTVTVSS VL: QLVLTQSPSVSVSPGQTASITCSGDKLGDKYAYWYQQKPGQAPVLVIYYDSDRPSGIPERFSGSNSGNTATLTISRVEAGDEADYYCQVWDSSSDQVVFGGGTQLTVLG ?
3.13

What measured EC50 goes with MV705-3-VH-ED + DE-IgG4 (antibody, V domains shown, human IgG4 S228P constant region, MV705-3 lambda light chain; also called 13564; 13564 (ED + DE)) VH: EVQLLESGAEVKKPGASVKVSCKASGYTFTSYGISWVRQAPGQGLEWMGWISAYNGNTNYAQKLQGRVTMTTDTSTSTAYMELRSLRSEDTAVYYCARDGWWELLRPDEAFDIWGQGTTVTVSS VL: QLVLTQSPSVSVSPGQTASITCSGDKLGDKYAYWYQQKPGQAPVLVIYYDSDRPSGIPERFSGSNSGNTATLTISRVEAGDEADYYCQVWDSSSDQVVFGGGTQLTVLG ?
2.43

What measured EC50 goes with MV705-3-VH-DD + DE-IgG4 (antibody, V domains shown, human IgG4 S228P constant region, MV705-3 lambda light chain; also called 13365; 13365 (DD + DE)) VH: EVQLLESGAEVKKPGASVKVSCKASGYTFTSYGISWVRQAPGQGLEWMGWISAYNGNTNYAQKLQGRVTMTTDTSTSTAYMELRSLRSDDTAVYYCARDGWWELLRPDEAFDIWGQGTTVTVSS VL: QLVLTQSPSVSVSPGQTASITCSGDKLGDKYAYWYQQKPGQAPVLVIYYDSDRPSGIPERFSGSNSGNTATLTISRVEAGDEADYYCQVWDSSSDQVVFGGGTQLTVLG ?
1.29

What measured EC50 goes with MV705-3-VH-DD + ED-IgG4 (antibody, V domains shown, human IgG4 S228P constant region, MV705-3 lambda light chain; also called 13386; 13386 (DD + ED)) VH: EVQLLESGAEVKKPGASVKVSCKASGYTFTSYGISWVRQAPGQGLEWMGWISAYNGNTNYAQKLQGRVTMTTDTSTSTAYMELRSLRSDDTAVYYCARDGWWELLRPEDAFDIWGQGTTVTVSS VL: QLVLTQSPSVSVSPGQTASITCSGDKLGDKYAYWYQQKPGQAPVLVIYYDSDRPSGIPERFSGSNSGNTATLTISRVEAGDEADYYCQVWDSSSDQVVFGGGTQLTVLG ?
0.15
